tested_on: MOZ-KAT6A (Homo sapiens, UniProt Q92794, A567V)
Sequence (Q92794 with tags, fused parts or gaps A567V): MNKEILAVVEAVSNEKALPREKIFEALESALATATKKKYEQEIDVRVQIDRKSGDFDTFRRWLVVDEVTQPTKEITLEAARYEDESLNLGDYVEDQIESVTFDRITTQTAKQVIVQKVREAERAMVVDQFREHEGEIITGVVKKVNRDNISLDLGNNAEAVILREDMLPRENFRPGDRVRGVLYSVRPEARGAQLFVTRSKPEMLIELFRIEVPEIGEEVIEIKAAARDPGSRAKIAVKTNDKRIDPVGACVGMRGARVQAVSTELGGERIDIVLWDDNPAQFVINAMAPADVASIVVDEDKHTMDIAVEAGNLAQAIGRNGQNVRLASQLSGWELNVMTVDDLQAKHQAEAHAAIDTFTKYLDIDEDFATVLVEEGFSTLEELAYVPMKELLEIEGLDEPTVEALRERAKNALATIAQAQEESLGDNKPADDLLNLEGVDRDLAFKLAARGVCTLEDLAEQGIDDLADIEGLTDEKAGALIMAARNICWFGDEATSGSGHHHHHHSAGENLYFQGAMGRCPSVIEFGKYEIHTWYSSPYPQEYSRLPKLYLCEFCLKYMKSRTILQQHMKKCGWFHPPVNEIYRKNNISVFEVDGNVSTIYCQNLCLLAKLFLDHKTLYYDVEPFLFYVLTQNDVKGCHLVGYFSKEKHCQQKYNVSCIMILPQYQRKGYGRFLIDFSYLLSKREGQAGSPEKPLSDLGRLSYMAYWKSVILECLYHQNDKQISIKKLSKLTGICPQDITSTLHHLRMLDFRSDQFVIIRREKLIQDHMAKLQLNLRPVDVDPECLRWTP
procedure_details: Acetyltransferase biochemical assay (AlphaScreen), KAT6A
property_measured: pIC50
On this scale, pIC50 is minus log10 of a concentration expressed in M (mol/L).

In the examples that follow, each entry is paired with its recorded pIC50.
| compound | pIC50 |
| --- | --- |
| O=S(=O)(Nc1noc2ccccc12)c1ccc2c(c1)CCCC2 [Example 65] | 4.55 |
| CCc1ccc(S(=O)(=O)Nc2noc3ccccc23)cc1 [Example 53] | 4.04 |
| COc1ccccc1S(=O)(=O)Nc1noc2cccc(F)c12 [Example 156] | 5.81 |
| CCc1ccc(OC)c(S(=O)(=O)Nc2noc3ccccc23)c1 [Example 63] | 5.59 |

Moving on to the next compound.
Value of pIC50 reported for the compound COCc1ccc2c(NS(=O)(=O)c3c(OC)cccc3OC)noc2c1 [Example 103] is 6.09

====

tested_on: HBO-KAT7 (Homo sapiens, UniProt O95251)
Sequence (O95251 with tags, fused parts or gaps): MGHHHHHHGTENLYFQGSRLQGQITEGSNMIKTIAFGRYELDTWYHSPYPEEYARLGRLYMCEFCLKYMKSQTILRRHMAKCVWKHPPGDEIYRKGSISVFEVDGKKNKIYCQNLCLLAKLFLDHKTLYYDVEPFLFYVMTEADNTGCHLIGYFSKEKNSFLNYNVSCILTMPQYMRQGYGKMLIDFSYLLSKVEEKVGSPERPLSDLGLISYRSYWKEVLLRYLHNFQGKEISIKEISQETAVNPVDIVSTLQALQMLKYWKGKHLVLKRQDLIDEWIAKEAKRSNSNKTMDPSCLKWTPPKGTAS
pIC50 reference
On this scale, pIC50 is minus log10 of a concentration expressed in M (mol/L).

In the examples that follow, each entry is paired with its recorded pIC50.
| compound | pIC50 |
| --- | --- |
| COCc1cc2onc(NS(=O)(=O)c3cccnc3)c2cc1C | 4.51 |
| COc1cccc(OC)c1S(=O)(=O)Nc1noc2cc(C(C)OC)cc(OC)c12 (centres unmarked) | 5.55 |

Moving on to the next compound.
Value (pIC50, HBO-KAT7 (Homo sapiens, UniProt O95251)) for record COc1cccc(OC)c1S(=O)(=O)Nc1noc2c(-c3cnn(C)c3)ccc(OC)c12 = 5.10

====

Entries with reported pIC50 on QKF-KAT6B (Homo sapiens)
Sequence (Q8WYB5 whole entry): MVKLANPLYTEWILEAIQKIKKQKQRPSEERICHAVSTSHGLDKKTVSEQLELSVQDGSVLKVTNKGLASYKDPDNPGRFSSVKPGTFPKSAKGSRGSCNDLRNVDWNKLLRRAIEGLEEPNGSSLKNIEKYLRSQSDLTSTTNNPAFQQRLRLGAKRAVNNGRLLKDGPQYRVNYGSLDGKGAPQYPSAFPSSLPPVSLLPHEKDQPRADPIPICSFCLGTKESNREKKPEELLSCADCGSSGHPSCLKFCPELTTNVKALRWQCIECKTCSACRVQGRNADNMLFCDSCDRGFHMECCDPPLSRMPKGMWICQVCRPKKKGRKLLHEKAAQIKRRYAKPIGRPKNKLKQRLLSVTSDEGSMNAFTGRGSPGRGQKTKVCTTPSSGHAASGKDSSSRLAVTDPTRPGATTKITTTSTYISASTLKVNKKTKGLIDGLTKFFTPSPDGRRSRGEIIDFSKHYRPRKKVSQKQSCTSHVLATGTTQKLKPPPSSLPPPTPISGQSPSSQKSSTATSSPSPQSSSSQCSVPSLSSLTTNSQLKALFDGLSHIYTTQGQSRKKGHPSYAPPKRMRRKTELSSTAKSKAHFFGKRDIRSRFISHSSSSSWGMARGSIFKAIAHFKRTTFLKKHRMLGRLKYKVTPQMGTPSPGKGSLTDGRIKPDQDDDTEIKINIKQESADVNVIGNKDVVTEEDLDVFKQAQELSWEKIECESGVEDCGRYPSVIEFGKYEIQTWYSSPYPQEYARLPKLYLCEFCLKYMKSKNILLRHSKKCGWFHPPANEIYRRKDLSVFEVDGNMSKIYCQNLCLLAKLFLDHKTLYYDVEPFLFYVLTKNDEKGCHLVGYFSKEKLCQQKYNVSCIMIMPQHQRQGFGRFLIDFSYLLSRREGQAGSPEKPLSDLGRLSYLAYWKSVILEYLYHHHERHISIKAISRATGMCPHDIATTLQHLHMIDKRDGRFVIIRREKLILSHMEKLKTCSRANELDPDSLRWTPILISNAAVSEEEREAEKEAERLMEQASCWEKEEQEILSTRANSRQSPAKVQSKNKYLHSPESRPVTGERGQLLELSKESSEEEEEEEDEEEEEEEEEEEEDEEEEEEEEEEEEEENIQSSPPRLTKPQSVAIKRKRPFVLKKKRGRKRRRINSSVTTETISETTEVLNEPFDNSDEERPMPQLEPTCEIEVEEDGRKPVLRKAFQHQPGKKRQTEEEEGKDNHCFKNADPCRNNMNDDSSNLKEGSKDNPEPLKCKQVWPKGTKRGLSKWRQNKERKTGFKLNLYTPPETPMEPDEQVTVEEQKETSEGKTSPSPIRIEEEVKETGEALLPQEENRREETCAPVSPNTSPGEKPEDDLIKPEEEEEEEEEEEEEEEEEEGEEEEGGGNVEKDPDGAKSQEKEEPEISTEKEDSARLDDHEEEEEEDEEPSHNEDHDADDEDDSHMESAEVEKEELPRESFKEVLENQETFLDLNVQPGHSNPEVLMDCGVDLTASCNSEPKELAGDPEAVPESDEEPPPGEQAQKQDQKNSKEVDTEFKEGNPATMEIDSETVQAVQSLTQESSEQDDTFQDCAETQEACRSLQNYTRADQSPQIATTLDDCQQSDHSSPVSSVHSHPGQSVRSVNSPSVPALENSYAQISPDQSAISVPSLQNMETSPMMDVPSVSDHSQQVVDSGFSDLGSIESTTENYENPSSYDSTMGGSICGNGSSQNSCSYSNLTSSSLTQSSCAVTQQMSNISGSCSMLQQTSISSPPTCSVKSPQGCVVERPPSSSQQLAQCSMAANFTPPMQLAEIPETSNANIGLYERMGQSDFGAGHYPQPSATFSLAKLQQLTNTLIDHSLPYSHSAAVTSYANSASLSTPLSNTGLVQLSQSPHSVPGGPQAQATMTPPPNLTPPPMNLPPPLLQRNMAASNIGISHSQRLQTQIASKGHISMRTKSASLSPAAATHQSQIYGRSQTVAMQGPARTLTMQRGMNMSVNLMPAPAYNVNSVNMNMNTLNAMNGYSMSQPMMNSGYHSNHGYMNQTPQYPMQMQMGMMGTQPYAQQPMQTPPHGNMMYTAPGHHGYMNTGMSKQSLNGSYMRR
On this scale, pIC50 is minus log10 of a concentration expressed in M (mol/L).

In the examples that follow, each entry is paired with its recorded pIC50.
| molecule | pIC50 |
| --- | --- |
| COc1cccc(OC)c1S(=O)(=O)Nc1noc2c(-c3cnn(C)c3)ccc(OC)c12 [Example 143] | 4.30 |
| COCc1cc2onc(NS(=O)(=O)c3ccc(OC)cc3OC)c2cc1C [Example 166] | 6.64 |
| COc1cccc(OC)c1S(=O)(=O)Nc1noc2cc(-c3ncco3)c(C)cc12 [Example 102] | 6.55 |
| COc1ccc(-c2ccccc2)c(OC)c1S(=O)(=O)Nc1noc2cccc(OC)c12 [Example 96] | 5.47 |
| COc1cccc(OC)c1S(=O)(=O)Nc1noc2cc(-c3cccc(O)c3)cc(OC)c12 [Example 92] | 7.28 |

Value (pIC50, QKF-KAT6B (Homo sapiens)) for record CCc1ccc(OC)c(S(=O)(=O)Nc2noc3c(-c4ccccc4)cccc23)c1 [Example 178] = 5.61

Value (pIC50, QKF-KAT6B (Homo sapiens)) for record COc1cccc(OC)c1S(=O)(=O)Nc1noc2cc(-c3ncco3)cc(OC)c12 [Example 144] = 7.24

Value (pIC50, QKF-KAT6B (Homo sapiens)) for record COCc1cc(OC)c2c(NS(=O)(=O)c3ccc(OC)c4cccnc34)noc2c1 [Example 162] = 6.74

====

Entries with reported log10 of IC50 on HBO-KAT7 (Homo sapiens)
Values reflect log10 of reported IC50 (nM).

| compound | assay_value |
| --- | --- |
| CCc1ccc(OC)c(S(=O)(=O)Nc2noc3ccc(Br)c(Cl)c23)c1 | 2.79 |
| COc1cc(C)cc(-c2cc(OC)c3c(NS(=O)(=O)c4c(OC)cccc4OC)noc3c2)c1 | 2.57 |
| CCc1ccc(OC)c(S(=O)(=O)Nc2noc3cccc(Br)c23)c1 | 3.12 |
| COc1cccc(OCc2cnn(C)c2)c1S(=O)(=O)Nc1noc2cccc(OC)c12 | 4.80 |

Value (log10 of IC50, HBO-KAT7 (Homo sapiens)) for record COCc1cc2onc(NS(=O)(=O)c3ccc(OC)cc3OC)c2cc1C = 2.52
